B1: USP39 (parent)
chain: FQGSMRIFTKKLPHPDLPAEEKEQ

- Variants of: B1
- TEST_PROTOCOL: protein stability index of a GFP-peptide fusion (GPS, HEK-293T) (PSI 1-6); higher = more stable;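 note: lentivirally expressed fusions sorted by FACS into six bins by GFP to DsRed ratio, PSI derived from sequencing read proportions per bin multiplied by bin number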
- APPLIED_CONDITIONS: c terminus: a fixed tail appended
Values of protein stability index greater than or equal to 2 map to Satisfied; values below map to Not satisfied.

Worked examples follow.
MUTANT_NAME | ASSIGNED_CATEGORY
E21I | Satisfied
D16S | Not satisfied
H14R | Not satisfied

Ask: hey, is protein stability index for this one >= 2? A19K
Reply: Not satisfied

Ask: hey, is protein stability index for this one >= 2? R6M
Reply: Satisfied

Ask: hey, is protein stability index for this one >= 2? I7M
Reply: Satisfied

Ask: hey, is protein stability index for this one >= 2? R6K
Reply: Not satisfied

Ask: hey, is protein stability index for this one >= 2? P18Q
Reply: Satisfied

Taken from the supplement of paper PMC10567573.
